protocol details: Pharmacokinetics measurements in rats
Assay type: in vivo
run parameters: rat, plasma; SD male rats, PO 5 mg/kg vs IV 1 mg/kg
Listed next: entries and their corresponding bioavailability.

[
  {
    "smiles str": "COCc1cc(C(=O)O)c2nc(C[C@H](OC3CCCC3)[C@H](O)c3cc(OC)c(C)c(OC)c3)sc2c1",
    "bioavailability": "30.3%"
  },
  {
    "smiles str": "COc1cc([C@@H](O)[C@H](Cc2nc3c(C(=O)O)cc(CO)cc3s2)OC2CCCC2)cc(OC)c1C",
    "bioavailability": "27.3%"
  }
]

* * *

protocol details: Pharmacokinetics measurements in mice
Type: in vivo
run parameters: mouse; CD1 female mice, single oral 5 mg/kg, plasma, mean
Listed next: entries and their corresponding AUC(0-t).
readout label: AUC(0-t) (ng·h/mL)

[
  {
    "molecule": "COCc1cc(C(=O)O)c2nc(C[C@H](OC3CCCC3)[C@H](O)c3cc(OC)c(C)c(OC)c3)sc2c1 [Compound 104]",
    "readout label": "AUC(0-t)",
    "recorded value": 6950
  },
  {
    "molecule": "COc1cc([C@@H](O)[C@H](Cc2nc3c(C(=O)O)cc(CO)cc3s2)OC2CCCC2)cc(OC)c1C [Compound 103]",
    "readout label": "AUC(0-t)",
    "recorded value": 1640
  }
]

* * *

protocol details: Pharmacokinetics measurements in rats
Assay type: in vivo
run parameters: rat; SD male rats, IV 1 mg/kg, plasma, mean

[
  {
    "smiles str": "COCc1cc(C(=O)O)c2nc(C[C@H](OC3CCCC3)[C@H](O)c3cc(OC)c(C)c(OC)c3)sc2c1",
    "value units": "ng·h/mL",
    "AUC(0-t)": 1900
  },
  {
    "smiles str": "COc1cc([C@@H](O)[C@H](Cc2nc3c(C(=O)O)cc(CO)cc3s2)OC2CCCC2)cc(OC)c1C",
    "value units": "ng·h/mL",
    "AUC(0-t)": 1330
  }
]

* * *

Listed next: entries and their corresponding pIC50.
test target: human LPA1 (Homo sapiens)
Construct: expressed in transfected cells; host or cells: CHO-K1
Sequence (Q92633 whole entry): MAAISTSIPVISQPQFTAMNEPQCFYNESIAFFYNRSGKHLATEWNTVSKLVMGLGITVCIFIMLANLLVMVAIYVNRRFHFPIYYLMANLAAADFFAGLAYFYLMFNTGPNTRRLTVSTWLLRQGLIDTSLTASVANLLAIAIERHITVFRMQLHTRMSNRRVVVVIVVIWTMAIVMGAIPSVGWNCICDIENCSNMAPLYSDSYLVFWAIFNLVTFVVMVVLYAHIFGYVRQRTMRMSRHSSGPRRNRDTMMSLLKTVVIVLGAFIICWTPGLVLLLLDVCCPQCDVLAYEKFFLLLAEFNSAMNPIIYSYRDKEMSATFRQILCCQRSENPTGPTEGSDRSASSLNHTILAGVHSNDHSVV
protocol details: In vitro LPA1 calcium flux antagonist assay
Assay type: cell-based
run parameters: CHO-K1 cells overexpressing human LPA1 and G15a, LPA challenge at EC80, FLIPR calcium mobilization
Protocol: CHO-K1 cells overexpressing human LPA1 and G15a were seeded at a total volume of 20 μL (15000 cells/well) into Matrigel pre-coated 384-well plates (corning −3764) and incubated at 37° C. After overnight incubation, the cells were serum starved for 4 h. […] Calcium mobilization was measured on a FLIPR Tetra (MDS). […] Percentage inhibition is calculated using the following formula: […]
pIC50: −log10 of the molar value.

[
  {
    "compound": "COc1cc([C@@H](O)[C@H](Cc2nc3c(C(=O)O)ccc(OC)c3s2)OC2CCCC2)cc(OC)c1C [Compound 107]",
    "pIC50": "> 8.00"
  },
  {
    "compound": "COCc1cc(C(=O)O)c2nc(C[C@H](OC3CCCC3)[C@H](O)c3cc(OC)c(C)c(OC)c3)sc2c1 [Compound 104]",
    "pIC50": "> 8.00"
  },
  {
    "compound": "CCCc1sc(C[C@H](OC2CCCC2)[C@H](O)c2cc(OC)c(C(C)=O)c(OC)c2)nc1C(C)C(=O)O (stereo partly drawn) [Compound 114]",
    "pIC50": "7.00 to 8.00"
  }
]
